- Test Target: HDAC1 (Homo sapiens, UniProt Q13547)
- Construct: used to probe endogenous HDACs in K562 whole cell extracts; endogenous in cells
- Sequence (Q13547 whole entry): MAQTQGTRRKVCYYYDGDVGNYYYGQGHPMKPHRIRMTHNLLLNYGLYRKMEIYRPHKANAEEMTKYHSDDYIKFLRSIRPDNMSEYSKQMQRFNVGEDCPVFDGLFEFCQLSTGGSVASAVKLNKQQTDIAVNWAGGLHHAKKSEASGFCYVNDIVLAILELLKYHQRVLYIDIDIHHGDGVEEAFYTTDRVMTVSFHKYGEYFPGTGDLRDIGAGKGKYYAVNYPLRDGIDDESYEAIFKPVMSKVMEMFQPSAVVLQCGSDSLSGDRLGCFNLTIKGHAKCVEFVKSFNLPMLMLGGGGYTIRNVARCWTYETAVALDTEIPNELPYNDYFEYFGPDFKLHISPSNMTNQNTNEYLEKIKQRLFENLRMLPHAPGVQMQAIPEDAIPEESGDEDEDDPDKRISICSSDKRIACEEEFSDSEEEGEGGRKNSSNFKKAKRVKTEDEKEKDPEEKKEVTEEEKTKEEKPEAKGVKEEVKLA
- Assay Remarks: Chemoproteomic binding profiling, K562 cell extract, SAHA/ITF2357 probe matrix (Kd app)
- Conditions Used: protein HDAC1; class I HDAC; read-out: Kd^app HDAC1
Assay Endpoint: Kd (µM)
// units = µM; emit number, no label

CCCC(CCC)C(=O)O [valproate, valproic acid] | 358

Then there is this compound:
Incoming: Item under review: "Nc1ccccc1NC(=O)CCCCCCC(=O)Nc1ccccc1" . Reported Kd?
Outgoing: 36

---

- Test Target: MiDAC complex (HDAC1/2, DNTTIP1, CDYL, MIDEAS) (Homo sapiens, UniProt Q13547+Q92769)
- Sequence (Q13547 whole entry): as the sequence (Q13547 whole entry) above
- Sequence (Q92769 whole entry): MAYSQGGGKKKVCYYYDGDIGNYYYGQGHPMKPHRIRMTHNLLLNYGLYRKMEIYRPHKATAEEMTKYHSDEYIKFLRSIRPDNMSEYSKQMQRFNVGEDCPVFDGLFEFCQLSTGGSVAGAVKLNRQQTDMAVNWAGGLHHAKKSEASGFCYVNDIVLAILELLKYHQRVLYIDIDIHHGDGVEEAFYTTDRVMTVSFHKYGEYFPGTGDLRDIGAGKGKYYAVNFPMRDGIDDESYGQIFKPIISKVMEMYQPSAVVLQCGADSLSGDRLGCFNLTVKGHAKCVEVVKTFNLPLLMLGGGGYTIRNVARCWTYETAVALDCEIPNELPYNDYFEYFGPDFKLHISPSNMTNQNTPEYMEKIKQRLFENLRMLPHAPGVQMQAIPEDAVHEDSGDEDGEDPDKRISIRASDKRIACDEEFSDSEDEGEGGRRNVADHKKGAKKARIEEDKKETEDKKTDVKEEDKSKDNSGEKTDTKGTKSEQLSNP
- Sequence (Q6PJG2 whole entry partner): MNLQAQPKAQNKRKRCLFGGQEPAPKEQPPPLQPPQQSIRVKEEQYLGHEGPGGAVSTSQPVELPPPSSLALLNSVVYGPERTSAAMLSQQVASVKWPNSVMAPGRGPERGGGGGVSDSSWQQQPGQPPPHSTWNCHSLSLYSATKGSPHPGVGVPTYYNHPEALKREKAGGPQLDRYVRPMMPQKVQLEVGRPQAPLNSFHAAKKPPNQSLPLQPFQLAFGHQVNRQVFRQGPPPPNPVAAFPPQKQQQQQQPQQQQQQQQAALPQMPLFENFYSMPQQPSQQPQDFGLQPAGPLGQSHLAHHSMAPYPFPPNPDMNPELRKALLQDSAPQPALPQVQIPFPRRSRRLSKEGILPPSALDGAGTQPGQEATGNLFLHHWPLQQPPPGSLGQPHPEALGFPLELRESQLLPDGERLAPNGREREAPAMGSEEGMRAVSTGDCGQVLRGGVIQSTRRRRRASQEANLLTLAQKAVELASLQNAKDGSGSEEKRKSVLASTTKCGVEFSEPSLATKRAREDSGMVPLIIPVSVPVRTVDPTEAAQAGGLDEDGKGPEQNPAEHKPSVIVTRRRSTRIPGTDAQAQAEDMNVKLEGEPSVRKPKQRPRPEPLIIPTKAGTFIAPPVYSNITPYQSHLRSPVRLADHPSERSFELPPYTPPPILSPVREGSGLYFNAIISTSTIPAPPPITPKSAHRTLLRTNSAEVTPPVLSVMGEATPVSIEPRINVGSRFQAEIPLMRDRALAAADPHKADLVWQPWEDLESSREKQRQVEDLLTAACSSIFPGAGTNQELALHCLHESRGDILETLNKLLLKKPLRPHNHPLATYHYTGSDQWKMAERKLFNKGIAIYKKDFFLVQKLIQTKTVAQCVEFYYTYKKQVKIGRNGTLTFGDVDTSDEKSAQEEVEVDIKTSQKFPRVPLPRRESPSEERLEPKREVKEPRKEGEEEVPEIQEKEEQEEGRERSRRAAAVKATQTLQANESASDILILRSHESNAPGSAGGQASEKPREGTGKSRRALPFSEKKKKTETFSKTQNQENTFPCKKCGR
- Sequence (Q9H147 whole entry partner): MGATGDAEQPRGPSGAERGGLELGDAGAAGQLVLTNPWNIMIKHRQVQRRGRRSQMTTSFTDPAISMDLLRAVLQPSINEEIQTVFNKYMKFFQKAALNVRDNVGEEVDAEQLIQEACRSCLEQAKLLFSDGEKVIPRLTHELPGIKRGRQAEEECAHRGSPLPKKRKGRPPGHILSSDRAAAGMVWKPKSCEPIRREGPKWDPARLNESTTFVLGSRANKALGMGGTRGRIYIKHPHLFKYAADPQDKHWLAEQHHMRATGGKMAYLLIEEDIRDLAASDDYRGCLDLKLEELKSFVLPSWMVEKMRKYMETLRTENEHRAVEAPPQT
- Sequence (Q9Y232 whole entry partner): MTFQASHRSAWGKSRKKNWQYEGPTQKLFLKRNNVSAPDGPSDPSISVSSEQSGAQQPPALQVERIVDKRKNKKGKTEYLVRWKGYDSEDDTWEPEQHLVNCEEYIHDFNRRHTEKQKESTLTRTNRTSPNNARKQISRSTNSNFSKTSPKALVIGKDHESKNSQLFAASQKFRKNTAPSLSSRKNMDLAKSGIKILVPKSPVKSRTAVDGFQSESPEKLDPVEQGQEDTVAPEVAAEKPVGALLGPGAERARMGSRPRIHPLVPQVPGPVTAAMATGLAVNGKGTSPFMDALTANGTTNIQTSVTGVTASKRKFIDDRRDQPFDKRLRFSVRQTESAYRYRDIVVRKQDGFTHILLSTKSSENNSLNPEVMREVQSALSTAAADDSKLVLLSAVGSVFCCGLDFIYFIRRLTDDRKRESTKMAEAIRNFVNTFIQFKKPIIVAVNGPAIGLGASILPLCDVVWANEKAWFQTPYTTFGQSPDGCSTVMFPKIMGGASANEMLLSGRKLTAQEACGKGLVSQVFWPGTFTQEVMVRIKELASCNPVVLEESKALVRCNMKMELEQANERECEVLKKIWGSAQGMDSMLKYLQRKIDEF
- Assay Remarks: Chemoproteomic binding profiling, K562 cell extract, SAHA/ITF2357 probe matrix (Kd app)
- Parameters: Kd^app MIDEAS; other: protein MIDEAS; MiDAC complex; Kd^app DNTTIP1; other: protein DNTTIP1
- Conditions Used: protein MIDEAS, read-out: Kd^app MIDEAS
Assay Endpoint: pKd
Quick note: pKd means taking -log10 of the concentration in moles per liter.

Incoming: Item under review: "CCCCOc1ccc(CC(=O)NO)cc1" . Reported pKd?
Outgoing: 3.32

---

- Test Target: HDAC1 (Homo sapiens)
- Construct: used to probe endogenous HDACs in K562 whole cell extracts; endogenous in cells
- Assay Remarks: Chemoproteomic binding profiling, K562 cell extract, SAHA/ITF2357 probe matrix (Kd app)
Assay Endpoint: pKd
Quick note: pKd means taking -log10 of the concentration in moles per liter.

Incoming: Item under review: C/C=C1\NC(=O)[C@H]2CSSCC/C=C/[C@H](CC(=O)N[C@H](C(C)C)C(=O)N2)OC(=O)[C@H](C(C)C)NC1=O [romidepsin] . Reported pKd?
Outgoing: 8.00

---

- Test Target: ISOC1 (Homo sapiens)
- Construct: endogenous in cells
- Sequence (Q96CN7 whole entry): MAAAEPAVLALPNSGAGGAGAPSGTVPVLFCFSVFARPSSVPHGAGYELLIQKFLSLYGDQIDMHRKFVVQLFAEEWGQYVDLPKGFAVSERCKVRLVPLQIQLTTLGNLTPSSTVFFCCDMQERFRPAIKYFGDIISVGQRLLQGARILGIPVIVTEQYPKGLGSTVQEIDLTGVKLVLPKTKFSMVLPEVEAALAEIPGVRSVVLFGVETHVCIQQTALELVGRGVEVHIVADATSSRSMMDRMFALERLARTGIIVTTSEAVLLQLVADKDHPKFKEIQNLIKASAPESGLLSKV
- Assay Remarks: Competition binding assay in cell lysate, affinity matrix, MS
- Conditions Used: ISOC1; Molt-4 cell lysate; read-out: IC50
Assay Endpoint: pIC50
Quick note: pIC50 means taking -log10 of the concentration in moles per liter.

Incoming: Item under review: CC(/C=C/C(=O)NO)=C\[C@@H](C)C(=O)c1ccc(N(C)C)cc1 [Trichostatin A] . Reported pIC50?
Outgoing: 5.52

---

- Test Target: PPP4C (Homo sapiens)
- Construct: endogenous in cells
- Sequence (P60510 1-307): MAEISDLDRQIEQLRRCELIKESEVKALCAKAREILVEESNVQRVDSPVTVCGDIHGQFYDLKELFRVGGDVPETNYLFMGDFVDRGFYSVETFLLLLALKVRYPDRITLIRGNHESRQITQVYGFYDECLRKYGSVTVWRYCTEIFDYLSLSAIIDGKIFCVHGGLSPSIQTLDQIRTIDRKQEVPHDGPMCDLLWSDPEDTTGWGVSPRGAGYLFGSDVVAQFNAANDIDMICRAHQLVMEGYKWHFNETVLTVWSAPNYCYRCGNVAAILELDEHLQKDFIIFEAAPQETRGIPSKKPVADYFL
- Assay Remarks: Competition binding assay in cell lysate, affinity matrix, MS
- Conditions Used: PPP4C; K-562 cell lysate; read-out: IC50
Assay Endpoint: IC50 (nM)
// units = nM; emit number, no label

Incoming: GET /values?readout=IC50&system=PPP4C (Homo sapiens)&item= CC(/C=C/C(=O)NO)=C\[C@@H](C)C(=O)c1ccc(N(C)C)cc1 [Trichostatin A]
Outgoing: 3000

meta.source: patent US20130071854A1
